- Tested on: K-562 leukemia
- TEST_METHOD_NOTES: NCI tumour cell line growth inhibition, 48 h
ENDPOINT: TGI

Field request: TGI | item: O=C1c2ccccc2C(=O)c2[nH]cnc21
> 100 µM

Which value of TGI has been reported for Cc1cc(N(CCC#N)CCC#N)ccc1/C(N=Nc1ccccc1)=N\NC(=O)c1cc(Cl)ccc1O in the records?
> 100 µM

Reported TGI, compound COc1ccc2nc3c(c(N)c2c1)C1CCC3C1(C)C (stereo unspecified) : ____
> 100 µM

Can you share its TGI? I mean this compound: COc1cc2nnc3c4cccnc4[nH]c3c2cc1OC
50 µM

// TGI lookup, key: CCCCS(=O)c1sc2nc(-c3cccs3)cc(-c3ccccc3)c2c1N (stereo unspecified)
> 100 µM

Reported TGI, compound O=C(c1ccccc1)C1(Br)S(=O)(=O)OCCOS1(=O)=O : ____
> 100 µM

Quick one: TGI for Cc1c(C)c(S(=O)(=O)N(CCCCN)OCCCN)c(C)c2c1OC(C)(C)CC2 ?
> 100 µM

For COc1cc2nc(Cl)nc(NS(=O)(=O)c3cc4ccccc4s3)c2cc1OC , what is its reported TGI?
52.6 µM

Item O=C1C(Cl)N(c2ccccc2Cl)C1c1c[nH]c2ccccc12 (stereo unspecified) has what recorded TGI?
> 100 µM

State the recorded TGI for this entry: O=C1c2ccccc2N2OC3(N4CCOCC4)CCCC3C12c1ccccc1 (stereo unspecified)
> 100 µM

Please look up its TGI: Cc1cc(Cl)nc(N(CCNc2ccnc3cc(Cl)ccc23)Cc2ccco2)n1
3.35 µM

---

So I've got a bunch of compounds here, and I need their TGI values.
- System: IGROV1 ovarian
- TEST_METHOD_NOTES: NCI tumour cell line growth inhibition, 48 h
Where a SMILES comes first, the peptide text is derived from it. Bridges are numbered along the chain shown (N, C = ends). [ ]: non-standard residue; d: D form. The star is where a group is joined. ξ: configuration not given here. aThr = C[C@H](O)[C@H](N)C(=O)O; ξF = NC(Cc1ccccc1)C(=O)O; Cbz = O=C(OCc1ccccc1)*

Look up TGI: C=CCN(CC=C)C(=O)c1cc(C)nc2c1c(=O)n(-c1ccccc1)c(=O)n2CCCN1CCN(c2ccccc2OC)CC1
> 50 µM

Value lookup for TGI; key = COc1cc(/C=C/c2csnn2)cc(OC)c1OC
> 100 µM

Return reported TGI; argument: CCOC(=O)CNC(=O)C(Cc1ccccc1)NC(=O)OCc1ccccc1 (configuration not stated) (Cbz-[ξF]-Gly-OEt)
> 100 µM

Given Clc1ccc(C=Nc2ccc(Oc3ccc(Cl)cc3)c(Cl)c2)cc1 , state its recorded TGI.
> 100 µM

Given COc1ccc(/C(Nc2ccccc2)=C(\CCl)c2ccccc2)cc1OC , state its recorded TGI.
> 100 µM

GET /values?readout=TGI&item= CC(C)C[C@@H]1NC(=O)[C@@H]2CCCN2C(=O)[C@@H]2CCCN2C(=O)[C@H](CC(C)C)NC(=O)[C@H](CO)NC(=O)[C@H](CCCCN)NC(=O)[C@H]([C@H](C)O)NC(=O)[C@@H]2CSSC[C@@H](NC1=O)C(=O)N[C@@H](Cc1ccccc1)C(=O)N1CCC[C@H]1C(=O)N[C@@H](CC(=O)O)C(=O)NCC(=O)N[C@@H](CCCN=C(N)N)C(=O)N2 (cyclo(C[aThr]KSLPPL[dC]FPDGR); disulfide 1-9)
> 50 µM

I am curious: what TGI value has been reported for CCc1ccc(Nc2cc(C)c3ccc(O)cc3n2)cc1 ?
20.8 µM

Sourced from PubChem BioAssay (NCI)
